- Tested on: A549-ACE2
- testDetails: drug-induced phospholipidosis relative to tamoxifen; higher = more phospholipidosis
- conditionDetails: 0.3 µM; 24 h
Could you please report measured drug-induced phospholipidosis for the items listed next?
Answers are plain numbers, in %.

Illustrative cases are given below, each with its answer.
{"compound": "CN1CCC[C@@H]1CCO[C@](C)(c1ccccc1)c1ccc(Cl)cc1 [clemastine]", "propertyMeasured": "drug-induced phospholipidosis", "valueReported": 0.63}
{"compound": "Nc1ccc(C(=O)Nc2cccc(-c3nc(N4CCOCC4)c4oc5ncccc5c4n3)c2)cn1", "propertyMeasured": "drug-induced phospholipidosis", "valueReported": 4.2}
{"compound": "CNC(=O)c1cc(Oc2ccc(NC(=O)Nc3ccc(Cl)c(C(F)(F)F)c3)cc2)ccn1 [sorafenib]", "propertyMeasured": "drug-induced phospholipidosis", "valueReported": -0.66}

Provide each entry's drug-induced phospholipidosis from the list below.
1. CCN(CC)CCCCNc1ncc2cc(-c3cc(OC)cc(OC)c3)c(NC(=O)NC(C)(C)C)nc2n1
2. C#C[C@]1(O)CC[C@H]2[C@@H]3CCc4cc(OC5CCCC5)ccc4[C@H]3CC[C@@]21C [quinestrol]

4.11
11.1

====

Could you please report measured cell viability for the items listed next?
- Test system: Caco-2
- testDetails: cell viability relative to DMSO; higher = less toxic
- conditionDetails: 72 h; 100 nM
Answers are plain numbers, in %.

Illustrative cases are given below, each with its answer.
{"molecule": "CC1(C)C(=O)NC2=C1C(=O)C(=O)c1ccccc12 [BVT-948]", "assayTarget": "Caco-2", "cell viability / %": 99.6}
{"molecule": "COc1ccccc1CN[C@H]1CCCN[C@H]1c1ccccc1", "assayTarget": "Caco-2", "cell viability / %": 109}
{"molecule": "COc1ccc(NS(=O)(=O)c2ccc(/N=N/c3ccc(O)c(C(=O)O)c3)cc2)nn1 [salazodine]", "assayTarget": "Caco-2", "cell viability / %": 97.4}
{"molecule": "O=C(NCCCN1CCOCC1)c1ccc(Cl)cc1 [eprobemide]", "assayTarget": "Caco-2", "cell viability / %": 108}
{"molecule": "Cc1cc(Cl)ccc1OCCCC(=O)NO [droxinostat]", "assayTarget": "Caco-2", "cell viability / %": 101}
{"molecule": "CC1=C(CCC(=O)O)c2cc3[nH]c(cc4nc(cc5[nH]c(cc1n2)c(C)c5C(C)O)C(C)=C4C(C)O)c(C)c3CCC(=O)O (configuration not stated) [hematoporphyrin]", "assayTarget": "Caco-2", "cell viability / %": 96.6}
{"molecule": "Cc1cc(OCc2nnc(SC3CCCC3)n2-c2cccnc2)ccc1-c1ccc(S(C)(=O)=O)cc1 [NMS-873]", "assayTarget": "Caco-2", "cell viability / %": 83.6}
{"molecule": "C1=C2CCCN[C@H]2[C@@H]2C[C@H]1[C@H]1CCCCN1C2 [aloperine]", "assayTarget": "Caco-2", "cell viability / %": 104}
{"molecule": "O=c1[nH]cnc2c([C@@H]3N[C@H](CO)[C@@H](O)[C@H]3O)c[nH]c12 [forodesine]", "assayTarget": "Caco-2", "cell viability / %": 98.4}
{"molecule": "Fc1ccc(-c2nc(-c3c(F)cccc3F)[nH]c2-c2ccncc2)cc1 [TA-01]", "assayTarget": "Caco-2", "cell viability / %": 99.9}

Provide each entry's cell viability from the list below.
1. Cn1c(Nc2ccc(C(F)(F)F)cc2)nc2cc(Oc3ccnc(-c4ncc(C(F)(F)F)[nH]4)c3)ccc21 [RAF265]
2. Cc1cc(N2CCCCC2)nc2ccccc12 [ML204]
3. CO[C@@H]1[C@@H](OC(N)=O)[C@@H](O)[C@H](Oc2ccc3c(O)c(NC(=O)c4ccc(O)c(CC=C(C)C)c4)c(=O)oc3c2C)OC1(C)C [novobiocin]
4. OCc1cc([C@@H](O)CNCCCCCCOCCOCc2c(Cl)cccc2Cl)ccc1O [vilanterol]
5. CN1C(=O)N(c2cc(Cl)cc(Cl)c2)C(=O)[C@]12CN(Cc1cc(C(=O)O)cs1)C[C@H]2c1ccc(C#N)cc1
6. COc1cc(C=O)ccc1O [vanillin]

1. 81.8
2. 84.3
3. 109
4. 96
5. 100
6. 96

Provide each entry's cell viability from the list below.
1. O=C(NCc1ccccn1)Nc1nnc(-c2ccco2)o1 [NK-252]
2. CCCCCCCCCCCCCCCCCCCCCCCCCCCCO [1-octacosanol]
3. CC(C)Oc1ccc(-c2cnc3c(-c4ccnc5ccccc45)cnn3c2)cc1 [DMH1]
4. COc1ccc(Cl)cc1C(=O)NCCc1ccc(C(=O)O)cc1 [meglitinide]
5. Cc1cc(O)c(C(=O)N[C@@H](C(=O)N[C@@H]2C(=O)N3C(C(=O)O)=C(CSc4nnnn4C)CS[C@H]23)c2ccc(O)cc2)cn1 [cefpiramide]
6. CCc1cccc(CC)c1NC1=NCCN1 [ST-91]

1: 103; 2: 97; 3: 102; 4: 94.8; 5: 116; 6: 96.2

====

- System: Caco-2
- testDetails: cell viability relative to DMSO; higher = less toxic
- conditionDetails: 72 h; 1 nM
propertyMeasured: cell viability (%)
Numbers only, in %.

Illustrative cases are given below, each with its answer.
{"compound": "O=C(O)c1ccc2[nH]cc(CCCCN3CC=C(c4ccccc4)CC3)c2c1", "cell viability / %": 106}
{"compound": "CC(C)Oc1ccc(-c2cnc3c(-c4ccnc5ccccc45)cnn3c2)cc1", "cell viability / %": 108}
{"compound": "Cn1c(=O)c2c(ncn2CCOC(=O)C(C)(C)Oc2ccc(Cl)cc2)n(C)c1=O [etofylline-clofibrate]", "cell viability / %": 98}
{"compound": "CNC(=O)COC(=O)NCCC1CCN(c2cccc(C)n2)CC1", "cell viability / %": 90.7}
{"compound": "CC[C@@H](C)Nc1cc(C(=O)N[C@H]2C[C@H]3CC[C@@H](C2)N3c2ccc(C(=O)C3CC3)cn2)c(C)cc1C(N)=O", "cell viability / %": 104}

Provide each entry's cell viability from the list below.
1. CC(C)(C)NCC(O)c1cc(Cl)c(N)c(Cl)c1 (stereo not drawn)
2. CC(C)CN(C[C@@H](OP(=O)(O)O)[C@H](Cc1ccccc1)NC(=O)O[C@H]1CCOC1)S(=O)(=O)c1ccc(N)cc1
3. CCc1cccc(CC)c1NC1=NCCN1
4. CCCCn1c(-c2ccccc2)nc(-c2ccccc2)c1CN(Cc1ccc2c(c1)OCO2)Cc1ccc2c(c1)OCO2
5. c1ccc2c(c1)CCC[C@H]2Nc1nc2ccccc2[nH]1
6. CC(C)(O)CC(=O)NCCn1ccc2ncnc(Nc3ccc(Oc4cccc(C(F)(F)F)c4)c(Cl)c3)c21
7. CN(C)c1ccc(C(=C2C=CC(=[N+](C)C)C=C2)c2ccc(N(C)C)cc2)cc1
8. CN1C(=O)N(c2cc(Cl)cc(Cl)c2)C(=O)[C@]12CN(Cc1cc(C(=O)O)cs1)C[C@H]2c1ccc(C#N)cc1

1. 93.7
2. 93.7
3. 102
4. 94.2
5. 93.1
6. 103
7. 86.3
8. 109

Provide each entry's cell viability from the list below.
1. CCCNC(=O)Nc1ccc(Oc2ncnc3cc(OC)c(OC)cc23)cc1Cl
2. O=[N+]([O-])c1c(Nc2cc(F)cc(Cl)c2)ccc2nonc12
3. CC12CCC(C(Br)C1=O)C2(C)C (stereo not drawn)

1: 92.8; 2: 99.2; 3: 88.5

Provide each entry's cell viability from the list below.
1. N=C(N)NN=C1C=CC(=NNC(N)=S)C=C1
2. Cc1nnc2n1-c1sc(CCC(=O)N3CCOCC3)cc1C(c1ccccc1Cl)=NC2

1: 88.4; 2: 108

====

- System: A549-ACE2
- testDetails: drug-induced phospholipidosis relative to tamoxifen; higher = more phospholipidosis
- conditionDetails: 10 µM; 48 h
propertyMeasured: drug-induced phospholipidosis (%)
One number for each entry, in %.

{"compound": "Cc1[nH]cnc1-c1ccc(Cl)cc1 [lofemizole]", "readingUnit": "%", "drug-induced phospholipidosis": 3.67}

Provide each entry's drug-induced phospholipidosis from the list below.
1. CCCCCCCCNC(=O)/C(C#N)=C/c1cn(CCCN(C)C)c2ccccc12 [dynole-34-2]
2. [Cl][Ru-]([Cl])([Cl])[Cl].[Na+].c1ccc2[nH]ncc2c1.c1ccc2[nH]ncc2c1 [NKP-1339]
3. Nc1ccc(C(=O)Nc2cccc(-c3nc(N4CCOCC4)c4oc5ncccc5c4n3)c2)cn1

119
-0.5
135

====

- Tested on: A549-ACE2 infected with SARS-CoV-2
- testDetails: morphology score (similarity to uninfected cells); higher = more like uninfected cells
- conditionDetails: 30 µM; 24 h
Could you please report measured morphology score for the items listed next?
Answers are plain numbers.

Illustrative cases are given below, each with its answer.
{"compound": "Cc1c(O)cccc1C(=O)N[C@@H](CSc1ccccc1)[C@H](O)CN1C[C@H]2CCCC[C@H]2C[C@H]1C(=O)NC(C)(C)C", "valueReported": 0.42}
{"compound": "CC(C)n1cnc2c(NCCc3ccc(O)cc3)nc(-c3csc4ccccc34)nc21", "valueReported": 0}
{"compound": "O=c1oc(-c2ccc(C(F)(F)F)cc2)nn1Cc1cc(Cl)ccc1O", "valueReported": 0.43}

Given `Cc1[nH]cnc1-c1ccc(Cl)cc1` , state its recorded morphology score. -0.13
